- TARGET_OR_TEST_SYSTEM: PI3Kβ (Homo sapiens (Human), UniProt P42338)
- Sequence (P42338 whole entry): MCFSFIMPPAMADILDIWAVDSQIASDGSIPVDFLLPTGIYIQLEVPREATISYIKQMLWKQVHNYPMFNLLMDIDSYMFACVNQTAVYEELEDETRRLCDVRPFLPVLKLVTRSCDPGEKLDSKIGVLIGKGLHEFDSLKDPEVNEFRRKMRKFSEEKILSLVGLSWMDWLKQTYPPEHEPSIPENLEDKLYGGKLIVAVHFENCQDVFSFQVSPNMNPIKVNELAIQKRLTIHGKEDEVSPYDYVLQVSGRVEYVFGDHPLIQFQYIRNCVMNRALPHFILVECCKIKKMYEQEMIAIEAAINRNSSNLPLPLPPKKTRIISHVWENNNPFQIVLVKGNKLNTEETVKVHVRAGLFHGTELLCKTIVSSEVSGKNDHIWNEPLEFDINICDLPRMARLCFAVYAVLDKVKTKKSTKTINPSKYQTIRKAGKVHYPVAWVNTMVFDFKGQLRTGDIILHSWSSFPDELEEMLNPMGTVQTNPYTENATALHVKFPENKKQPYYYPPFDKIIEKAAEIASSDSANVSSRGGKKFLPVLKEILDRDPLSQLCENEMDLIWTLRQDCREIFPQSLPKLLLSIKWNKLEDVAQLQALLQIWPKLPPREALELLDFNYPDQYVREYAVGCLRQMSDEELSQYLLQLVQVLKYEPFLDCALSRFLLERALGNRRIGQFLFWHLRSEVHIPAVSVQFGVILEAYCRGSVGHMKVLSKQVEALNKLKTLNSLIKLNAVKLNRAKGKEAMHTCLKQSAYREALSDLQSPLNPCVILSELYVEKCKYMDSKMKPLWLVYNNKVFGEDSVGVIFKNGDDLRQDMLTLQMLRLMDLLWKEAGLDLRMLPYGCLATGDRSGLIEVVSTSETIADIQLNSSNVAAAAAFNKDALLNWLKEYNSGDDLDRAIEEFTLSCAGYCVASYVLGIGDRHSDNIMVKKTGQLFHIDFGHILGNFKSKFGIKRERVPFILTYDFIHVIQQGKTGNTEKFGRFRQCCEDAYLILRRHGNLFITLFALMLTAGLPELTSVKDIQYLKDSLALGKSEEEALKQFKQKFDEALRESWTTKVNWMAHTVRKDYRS
- Sequence (P27986 whole entry partner): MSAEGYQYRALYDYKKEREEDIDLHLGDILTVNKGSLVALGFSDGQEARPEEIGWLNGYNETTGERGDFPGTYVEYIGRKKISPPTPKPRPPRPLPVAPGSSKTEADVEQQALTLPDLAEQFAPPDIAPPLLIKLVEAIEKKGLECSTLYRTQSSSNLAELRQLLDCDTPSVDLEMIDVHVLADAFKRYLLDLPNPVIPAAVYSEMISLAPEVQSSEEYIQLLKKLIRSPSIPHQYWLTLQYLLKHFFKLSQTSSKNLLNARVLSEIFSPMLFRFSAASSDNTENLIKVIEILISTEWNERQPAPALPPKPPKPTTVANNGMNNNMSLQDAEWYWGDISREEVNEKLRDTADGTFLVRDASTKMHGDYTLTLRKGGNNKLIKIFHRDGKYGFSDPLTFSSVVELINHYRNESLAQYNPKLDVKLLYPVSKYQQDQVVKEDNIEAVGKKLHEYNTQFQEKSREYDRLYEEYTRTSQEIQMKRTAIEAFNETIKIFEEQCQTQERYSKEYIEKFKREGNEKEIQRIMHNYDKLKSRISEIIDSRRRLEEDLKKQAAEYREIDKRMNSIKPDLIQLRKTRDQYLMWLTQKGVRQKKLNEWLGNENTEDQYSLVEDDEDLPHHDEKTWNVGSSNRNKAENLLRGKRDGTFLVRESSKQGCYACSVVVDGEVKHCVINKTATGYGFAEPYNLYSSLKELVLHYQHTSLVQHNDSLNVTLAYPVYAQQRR
- MEASUREMENT_NOTES: PI3K inhibition assay (PI3 Kinase activity/inhibitor assay kit), PI3Kβ
- Format: biochemical
- CONDITION_DESCRIPTION: read-out: PI3K (IC50) β
ASSAY_ENDPOINT: IC50 (µM)
Output spec: scalar in µM, unitless text.

Short answer for CC1(C)CCCC2(C)c3c(oc4c(B(O)O)c(O)c(O)cc34)CCC12 (stereo not shown) [Compound AZ] : IC50 was 5.7
